# system_under_test: KRAS Q61H (Homo sapiens, UniProt P01116+P62937, Q61H)
# Sequence (P01116 1-169 isoform P01116-2 Q61H limits assumed): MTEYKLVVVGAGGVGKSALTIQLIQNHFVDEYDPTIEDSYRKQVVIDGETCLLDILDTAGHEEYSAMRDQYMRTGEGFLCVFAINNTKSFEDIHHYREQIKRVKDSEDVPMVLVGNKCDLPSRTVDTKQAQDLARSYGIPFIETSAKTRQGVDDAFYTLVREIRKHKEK
# Sequence (P62937 whole entry): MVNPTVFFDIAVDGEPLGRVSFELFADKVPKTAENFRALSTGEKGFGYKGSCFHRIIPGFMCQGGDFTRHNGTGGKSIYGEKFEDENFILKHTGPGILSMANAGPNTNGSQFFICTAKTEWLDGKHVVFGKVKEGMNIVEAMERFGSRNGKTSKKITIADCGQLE
# experimental_protocol: Ras-Raf disruption / FRET / MOA assay (BRAF RBD)
# Assay type: biochemical
# conditions: KRAS Q61H; read-out: KRAS Q61H FRET data IC50
# From the text: Disruption of […] Ras-binding Domain (BRAF^RBD) Interaction with K-Ras by Compounds of the Invention (also Called a FRET Assay or an MOA Assay) Note—The following protocol describes a procedure for monitoring disruption of K-Ras G12C (GMP-PNP) binding to BRAF^RBD by a compound of the invention. This protocol may also be executed substituting other Ras proteins or nucleotides, such as K-Ras G12D and K-Ras G13D. […]
property: IC50

[[record]]
molecule = "CCn1c(-c2cccnc2[C@H](C)OC)c2c3cc(ccc31)-c1csc(n1)C[C@H](NC(=O)[C@H](C(C)C)N(C)C(=O)N(C)[C@H]1CCN(C(=O)[C@H]3CN3)C1)C(=O)N1CCC[C@H](N1)C(=O)OCC(C)(C)C2 (atropisomer, axis not shown)"
property = "IC50"
observed_result = "100 to 1000 nM"

[[record]]
molecule = "CCn1c(-c2cccnc2[C@H](C)OC)c2c3cc(ccc31)-c1cc(O)cc(c1)C[C@H](NC(=O)[C@H](C(C)C)N(C)C(=O)N(C)C1CN(C(=O)[C@H]3CN3)C1)C(=O)N1CCC[C@H](N1)C(=O)OCC(C)(C)C2 (atropisomer, axis not shown)"
property = "IC50"
observed_result = "10 to 100 nM"

[[record]]
molecule = "CCn1c(-c2cccnc2[C@H](C)OC)c2c3cc(ccc31)-c1cc(O)cc(c1)C[C@H](NC(=O)[C@H](C(C)C)N(C)C(=O)N1CC[C@@H](N(C)C(=O)[C@@H]3CN3)C1)C(=O)N1CCC[C@H](N1)C(=O)OCC(C)(C)C2 (atropisomer, axis not shown)"
property = "IC50"
observed_result = "10 to 100 nM"

[[record]]
molecule = "CCn1c(-c2cccnc2[C@H](C)OC)c2c3cc(ccc31)-c1cc(O)cc(c1)C[C@H](NC(=O)[C@H](C(C)C)N(C)C(=O)c1nc(NC(=O)[C@H]3CN3)cs1)C(=O)N1CCC[C@H](N1)C(=O)OCC(C)(C)C2 (atropisomer, axis not shown)"
property = "IC50"
observed_result = "10 to 100 nM"

[[record]]
molecule = "CCn1c(-c2cccnc2[C@H](C)OC)c2c3cc(ccc31)-c1cc(O)cc(c1)C[C@H](NC(=O)[C@H](C(C)C)N(C)C(=O)[C@H]1CCCN(C(=O)[C@H]3CN3)C1)C(=O)N1CCC[C@H](N1)C(=O)OCC(C)(C)C2"
property = "IC50"
observed_result = "100 to 1000 nM"


Task: So what IC50 did CCn1c(-c2cccnc2[C@H](C)OC)c2c3cc(ccc31)-c1csc(n1)C[C@H](NC(=O)[C@H](C(C)C)N(C)C(=O)N(C)CCN(C)C(=O)[C@@H]1CN1)C(=O)N1CCC[C@H](N1)C(=O)OCC(C)(C)C2 (atropisomer, axis not shown) get with KRAS Q61H (Homo sapiens, UniProt P01116+P62937, Q61H)?
Output: 10 to 100 nM

Task: Please answer likewise for CCn1c(-c2cccnc2[C@H](C)OC)c2c3cc(ccc31)-c1csc(n1)C[C@H](NC(=O)[C@H](C(C)C)N(C)C(=O)N(C)[C@H]1CCCN(C(=O)[C@H]3CN3)C1)C(=O)N1CCC[C@H](N1)C(=O)OCC(C)(C)C2 (atropisomer, axis not shown)
Output: 100 to 1000 nM

Task: Please answer likewise for CCn1c(-c2cccnc2[C@H](C)OC)c2c3cc(ccc31)-c1csc(n1)C[C@H](NC(=O)[C@H](C(C)C)N(C)C(=O)N(C)CCN(C)C(=O)[C@H]1CN1)C(=O)N1CCC[C@H](N1)C(=O)OCC(C)(C)C2 (atropisomer, axis not shown)
Output: 10 to 100 nM

Task: Please answer likewise for CCn1c(-c2cccnc2[C@H](C)OC)c2c3cc(ccc31)-c1cc(O)cc(c1)C[C@H](NC(=O)[C@H](C(C)C)N(C)C(=O)[C@H]1C[C@H]3CC[C@@H](C1)N3C(=O)[C@@H]1CN1)C(=O)N1CCC[C@H](N1)C(=O)OCC(C)(C)C2 (atropisomer, axis not shown)
Output: < 10 nM

Task: Please answer likewise for CCn1c(-c2cccnc2[C@H](C)OC)c2c3cc(ccc31)-c1csc(n1)C[C@H](NC(=O)[C@H](C(C)C)N(C)C(=O)N1CCC(CN(C)C(=O)[C@H]3CN3)CC1)C(=O)N1CCC[C@H](N1)C(=O)OCC(C)(C)C2 (atropisomer, axis not shown)
Output: 10 to 100 nM

Task: Please answer likewise for CCn1c(-c2cccnc2[C@H](C)OC)c2c3cc(ccc31)-c1csc(n1)C[C@H](NC(=O)[C@H](C(C)C)N(C)C(=O)N1CC(CN(C)C(=O)[C@H]3CN3)C1)C(=O)N1CCC[C@H](N1)C(=O)OCC(C)(C)C2 (atropisomer, axis not shown)
Output: 10 to 100 nM

Task: Please answer likewise for CCn1c(-c2cccnc2[C@H](C)OC)c2c3cc(ccc31)-c1cc(O)cc(c1)C[C@H](NC(=O)[C@H](C(C)C)N(C)C(=O)[C@H]1CCN(C(=O)C3OC3c3ccccc3)C1)C(=O)N1CCC[C@H](N1)C(=O)OCC(C)(C)C2 (stereo partly drawn)
Output: 10 to 100 nM

Task: Please answer likewise for CCn1c(-c2cccnc2[C@H](C)OC)c2c3cc(ccc31)-c1csc(n1)C[C@H](NC(=O)[C@H](C(C)C)N(C)C(=O)N1CCN(C(=O)[C@@H]3CN3)[C@@H](C)C1)C(=O)N1CCC[C@H](N1)C(=O)OCC(C)(C)C2
Output: 10 to 100 nM

Task: Please answer likewise for CCn1c(-c2cccnc2[C@H](C)OC)c2c3cc(ccc31)-c1cc(O)cc(c1)C[C@H](NC(=O)[C@H](C(C)C)N(C)C(=O)N1CC[C@H](N(C)C(=O)[C@H]3CN3)C1)C(=O)N1CCC[C@H](N1)C(=O)OCC(C)(C)C2 (atropisomer, axis not shown)
Output: 10 to 100 nM

Task: Please answer likewise for CCn1c(-c2cccnc2[C@H](C)OC)c2c3cc(ccc31)-c1cc(cc(C(F)F)c1)C[C@H](NC(=O)[C@H](C1CCCC1)N1CC[C@]3(CCN(C(=O)[C@@H]4N[C@@H]4C4CC4)C3)C1)C(=O)N1CCC[C@H](N1)C(=O)OCC(C)(C)C2
Output: 100 to 1000 nM

Data origin, for the record: patent US20230233569A1
